system: C. albicans ATCC 2310; experiment: Antifungal MIC, CLSI M27-A3 microbroth dilution; format: cell-based, Candida albicans; conditions: Candida albicans, ATCC2310; C. albicans ATCC 2310, susceptible to FLC, ITC, and VOR; converted from μg/mL; read-out: MIC
Lab note - cut at 70 µM for MIC: 1.0 if strictly below, 0.0 if not.

Observe how each entry below is paired with its result.
compound | class
Cl.N=C(N)N/N=C/c1ccc(-c2ccc(/C=N/Nc3ccc(F)cc3F)cc2)cc1 [Compound 7Af, monohydrochloride] | 1.0
C/C(=N\NC(=N)N)c1cccc(/C(C)=N/NC(=N)N)c1.Cl.Cl [Compound 4H, dihydrochloride] | 0.0
Cl.N=C(N)N/N=C/c1ccc(-c2ccc(/C=N/Nc3ccc(Cl)cc3Cl)cc2)cc1 [Compound 7Ag, hydrochloride] | 1.0
Cl.Cl.N=C(N)N/N=C/c1ccc(-c2ccc(/C=N/NC(=N)N)cc2)cc1 [Compound 3A, dihydrochloride] | 0.0
Cl.N=C(N)N/N=C/c1ccc(-c2ccc(/C=N/Nc3ccc(Cl)cc3)cc2)cc1 [Compound 7Ad, monohydrochloride] | 1.0

Q: Is MIC of C/C(=N\NC(=N)N)c1ccc(-c2ccc(/C(C)=N/NC(=N)N)cc2)cc1.Cl.Cl [Compound 4A, dihydrochloride] strictly below 70 µM?
Ans: 1.0

###

Each entry below lists one item and its recorded melting point value.

smiles.representation | melting point
Cl.N=C(N)N/N=C/c1ccc(-c2ccc(/C=N/Nc3ccc(Cl)cc3)cc2)cc1 | > 380 °C
Cl.N=C(N)N/N=C/c1ccc(-c2ccc(/C=N/Nc3ccc(F)cc3F)cc2)cc1 | > 380 °C
Cl.N=C(N)N/N=C/c1ccc(-c2ccc(/C=N/Nc3ccc(Cl)cc3Cl)cc2)cc1 | 356 to 358 °C
Cl.N#Cc1ccc(N/N=C/c2ccc(-c3ccc(/C=N/NC(=N)N)cc3)cc2)cc1 | 308 to 310 °C

Lab book: melting point of Cl.N=C(N)N/N=C/c1ccc(-c2ccc(/C=N/Nc3ccccc3Br)cc2)cc1 noted as > 380 °C

The measured melting point associated with Cl.N=C(N)N/N=C/c1ccc(-c2ccc(/C=N/Nc3ccc(F)cc3)cc2)cc1 reads > 380 °C

Kindly note the recorded melting point for C/C(=N\NC(=N)N)c1ccc(-c2ccc(/C(C)=N/Nc3ccccc3Cl)cc2)cc1.Cl , which is > 380 °C

// melting point value for C/C(=N\NC(=N)N)c1ccc(Cc2ccc(/C(C)=N/NC(=N)N)cc2)cc1.Cl.Cl : 342 to 344 °C

###

A collection of molecules and their measured MIC
system: VRE; assay: Antibacterial MIC, double-dilution method; format: cell-based; conditions: Enterococcus, strain D, Gram-positive, converted from μM, read-out: MIC
Respond with the bare value in µg/mL.

Lab entry: VRE assay, molecule CC1COc2c(N3CCN(C)CC3)c(F)cc3c(=O)c(C(=O)O)cn1c23 (stereo not shown) [OFX, ofloxacin, reference compound] , MIC = 2.8

Lab note: molecule CC1(C)S[C@@H]2[C@H](NC(=O)[C@H](N)c3ccccc3)C(=O)N2[C@H]1C(=O)O [AMP, ampicillin, reference compound] tested on VRE; recorded MIC was 92.8

// MIC (VRE) for C/C(=N\NC(=N)N)c1ccc(CCc2ccc(/C(C)=N/NC(=N)N)cc2)cc1.Cl.Cl = 0.5

VRE data for Cl.N=C(N)N/N=C/c1ccc(-c2ccc(C=NNc3ccccc3Cl)cc2)cc1 (mixture of isomers) ; its MIC: 0.9
